Assay: Inhibition of baker's yeast alpha-glucosidase using p-nitrophenyl-alpha-D-glucopyranoside as substrate incubated with enzyme for 10 mins prior to substrate challenge for 15 mins by microplate reader analysis
Parameters: species or system Saccharomyces cerevisiae
parameter measured: IC50

Some compounds with known IC50 results, for comparison:
[[record]]
compound = "C/C(=C\\Cc1c(O)cc2c(c1O)CN(CCO)C2=O)CC/C=C(\\C)C(=O)O"
obs_value = "24.2 µM"

[[record]]
compound = "C[C@H]1O[C@H](O[C@H]2[C@H](O)[C@@H](O)[C@@H](O[C@H]3[C@H](O)[C@@H](O)C(O)O[C@@H]3CO)O[C@@H]2CO)[C@H](O)[C@@H](O)[C@@H]1N[C@H]1C=C(CO)[C@@H](O)[C@H](O)[C@H]1O (some centres undefined)"
obs_value = "383 µM"

[[record]]
compound = "COc1cc2c(c(O)c1C/C=C(\\C)CCC=C(C)C)CN(CCc1ccccc1)C2=O"
obs_value = "5.3 µM"


Alright, here's another compound for you.
Query IC50 for COC(=O)C/C=C(\C)CCc1c(O)cc2c(c1O)CNC2=O 10.3 µM

====

System: HeLa
Assay: Cytotoxicity against human HeLa cells after 72 hrs by MTT assay
Type: functional, cell-based
parameter measured: IC50

Illustrative cases are given below, each with its answer.
[[record]]
chemical_structure = "O=C(O)[C@H](Cc1ccccc1)N1Cc2ccccc2C1=O"
obs_value = "> 100 µM"

[[record]]
chemical_structure = "CC(C)[C@@H](C(=O)O)N1Cc2ccccc2C1=O"
obs_value = "> 100 µM"

[[record]]
chemical_structure = "C/C(=C\\Cc1c(O)cc2c(c1O)CNC2=O)CC/C=C(\\C)C(=O)O"
obs_value = "> 100 µM"

[[record]]
chemical_structure = "CC(C)[C@H](C(=O)O)N1Cc2ccccc2C1=O"
obs_value = "> 100 µM"

[[record]]
chemical_structure = "COC(=O)CC/C(C)=C/Cc1c(O)cc2c(c1O)CN([C@@H](Cc1ccccc1)C(=O)OC)C2=O"
obs_value = "> 100 µM"


Please indicate recorded IC50 of COc1cc2c(c(O)c1C/C=C(\C)CCC=C(C)C)CN(CCc1ccccc1)C2=O measured with HeLa. 40.5 µM

Provide IC50, tested on HeLa, for COC(=O)CC/C(C)=C/Cc1c(O)cc2c(c1O)CNC2=O . > 100 µM

Check HeLa data and give IC50 for COC(=O)C/C=C(\C)CCc1c(O)cc2c(c1O)CNC2=O . > 100 µM

Given COC(=O)C/C=C(\C)CCc1c(O)cc2c(c1O)CN([C@@H](Cc1ccccc1)C(=O)OC)C2=O , report its IC50 on HeLa. > 100 µM

Would you please give the reported IC50 of CC[C@H](C)[C@@H](C(=O)O)N1Cc2ccccc2C1=O with HeLa? > 100 µM

Report measured IC50 on HeLa; entry: C/C(=C\Cc1c(O)cc2c(c1O)CN([C@H](C(=O)O)C(C)C)C2=O)CC/C=C(\C)C(=O)O > 100 µM

====

Assay: Inhibition of baker's yeast alpha-glucosidase using p-nitrophenyl-alpha-D-glucopyranoside as substrate incubated with enzyme for 10 mins prior to substrate challenge for 15 mins by microplate reader analysis
Design: species or system Saccharomyces cerevisiae
pIC50 values, listed per item
Scale: pIC50 equals -log10([C]), with [C] in mol/L.

[[record]]
chemical_structure = "C/C(=C\\Cc1c(O)cc2c(c1O)CN([C@H](C(=O)O)C(C)C)C2=O)CC/C=C(\\C)C(=O)O"
obs_value = 4.89


Shift focus to the following entry.
Assign pIC50 to the following record: COC(=O)C/C=C(\C)CCc1c(O)cc2c(c1O)CN([C@@H](Cc1ccccc1)C(=O)OC)C2=O 4.70

====

Assay: Inhibition of baker's yeast alpha-glucosidase using p-nitrophenyl-alpha-D-glucopyranoside as substrate incubated with enzyme for 10 mins prior to substrate challenge for 15 mins by microplate reader analysis
Set-up: species or system Saccharomyces cerevisiae
parameter measured: IC50 (µM)
Form entry: value (µM) — number only.

Recorded IC50, per entry:
[[record]]
chemical_structure = "COC(=O)CC/C(C)=C/Cc1c(O)cc2c(c1O)CNC2=O"
obs_value = 145

[[record]]
chemical_structure = "COC(=O)C/C=C(\\C)CCc1c(O)cc2c(c1O)CN(CCO)C2=O"
obs_value = 18.6

[[record]]
chemical_structure = "COC(=O)CC/C(C)=C/Cc1c(O)cc2c(c1O)CN(CCO)C2=O"
obs_value = 97.8

[[record]]
chemical_structure = "COC(=O)CC/C(C)=C/Cc1c(O)cc2c(c1O)CN([C@@H](Cc1ccccc1)C(=O)OC)C2=O"
obs_value = 15.5


From here, focus on the item given below.
Recall and state the measured IC50 for CC[C@H](C)[C@@H](C(=O)O)N1Cc2c(cc(O)c(C/C=C(\C)CC/C=C(\C)C(=O)O)c2O)C1=O . 39.6
